In this section we review reported IC50 values for a set of compounds.
Target: Notum (Homo sapiens, UniProt Q6P988)
Sequence (Q6P988 20-496): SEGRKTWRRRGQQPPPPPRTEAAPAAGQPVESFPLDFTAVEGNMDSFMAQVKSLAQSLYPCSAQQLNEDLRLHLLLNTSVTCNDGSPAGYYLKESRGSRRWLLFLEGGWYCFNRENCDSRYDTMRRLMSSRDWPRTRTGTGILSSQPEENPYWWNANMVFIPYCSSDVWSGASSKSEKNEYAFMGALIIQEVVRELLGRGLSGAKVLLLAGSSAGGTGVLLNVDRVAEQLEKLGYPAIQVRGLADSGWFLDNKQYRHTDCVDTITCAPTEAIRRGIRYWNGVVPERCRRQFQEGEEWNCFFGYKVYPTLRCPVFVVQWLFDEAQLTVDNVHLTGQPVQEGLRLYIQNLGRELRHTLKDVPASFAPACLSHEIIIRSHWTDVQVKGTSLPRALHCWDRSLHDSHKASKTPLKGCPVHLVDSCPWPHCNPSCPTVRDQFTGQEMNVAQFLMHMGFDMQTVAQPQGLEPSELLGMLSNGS
Test: Notum inhibition assay
Assay type: biochemical
Reply with just the number (in nM).

Compound: O=C(O)c1cc(O)c2c(c1)C(=O)c1cccc(O)c1C2=O [Rhein]
Reading: 9.98

Compound: Cc1cc(O)c2c(c1)C(=O)c1cc(O)cc(O)c1C2=O [Emodin]
Reading: 286

// next entry
*Q* Item under review: Cc1cc(O)c2c(c1)C(=O)c1cccc(O)c1C2=O [Chrysophanol] . Reported IC50?
*A* 946
